# assay_explanation: Growth inhibition of human MCF7/Topo cells after 24 hrs by MTT assay
# Type: functional, cell-based
value_type: pIC50
Scale for pIC50: -log10 of concentration given in mol/L; no unit attached.

Some molecules with recorded pIC50:
{"columns": ["structure_notation", "pIC50"],
 "data": [
  ["CCn1cc(Cl)c2cc(-c3c(-c4cc(OC)c(OC)c(OC)c4)ncn3C)ccc21", 7.52],
  ["CCn1c(Cl)c(Cl)c2cc(-c3c(-c4cc(Br)c(OC)c(OC)c4)ncn3C)ccc21", 6.31],
  ["COc1cc(-c2ncn(C)c2-c2ccc3c(c2)c(Cl)cn3C)cc(Cl)c1OC", 7.57]
]}

Now consider a different molecule.
Enquiry: Supply recorded pIC50 for COc1cc(-c2ncn(C)c2-c2ccc3c(c2)c(Cl)cn3C)cc(I)c1OC here.
Return: 7.27

====

# assay_explanation: Growth inhibition of human 518A2 cells after 72 hrs by MTT assay
# Assay type: functional, cell-based
# experimental_context: 518A2, 72 h
value_type: IC50
Answer format reminder: number followed by unit.

Some compounds with recorded IC50:
{"columns": ["structure_notation", "IC50"],
 "data": [
  ["CCn1c(Cl)c(Cl)c2cc(-c3c(-c4cc(Br)c(OC)c(OC)c4)ncn3C)ccc21", "767 nM"],
  ["COc1cc(-c2ncn(C)c2-c2ccc3c(c2)c(Cl)cn3C)cc(OC)c1OC", "18.2 nM"],
  ["COc1cc(-c2ncn(C)c2-c2ccc3c(c2)c(Cl)c(Cl)n3C)cc(Br)c1OC", "223 nM"]
]}

Enquiry: Supply recorded IC50 for CCn1cc(Cl)c2cc(-c3c(-c4cc(Br)c(OC)c(OC)c4)ncn3C)ccc21 here.
Return: 82 nM

Enquiry: Supply recorded IC50 for COc1cc(-c2ncn(C)c2-c2ccc3c(c2)c(Cl)cn3C)cc(Cl)c1OC here.
Return: 32.4 nM

Enquiry: Supply recorded IC50 for COc1cc(-c2ncn(C)c2-c2ccc3c(c2)c(Cl)cn3C)cc(Br)c1OC.Cl here.
Return: 28.2 nM

Enquiry: Supply recorded IC50 for CCn1cc(Cl)c2cc(-c3c(-c4cc(OC)c(OC)c(OC)c4)ncn3C)ccc21 here.
Return: 33 nM

Enquiry: Supply recorded IC50 for COc1cc(-c2ncn(C)c2-c2ccc3c(c2)c(Cl)cn3C)cc(I)c1OC here.
Return: 35.7 nM

Enquiry: Supply recorded IC50 for CCn1cc(Cl)c2cc(-c3c(-c4cc(I)c(OC)c(OC)c4)ncn3C)ccc21 here.
Return: 168 nM

====

Quick reference: pIC50 of the listed items.
# assay_explanation: Growth inhibition of human 518A2 cells after 24 hrs by MTT assay
# Type: functional, cell-based
# experimental_context: 518A2, 24 h
Scale for pIC50: -log10 of concentration given in mol/L; no unit attached.

{"columns": ["structure_notation", "pIC50"],
 "data": [
  ["CCn1cc(Cl)c2cc(-c3c(-c4cc(OC)c(OC)c(OC)c4)ncn3C)ccc21", 6.13],
  ["COc1cc(-c2ncn(C)c2-c2ccc3c(c2)c(Cl)cn3C)cc(Br)c1OC.Cl", 7.28]
]}

Enquiry: Supply recorded pIC50 for COc1cc(-c2ncn(C)c2-c2ccc3c(c2)c(Cl)cn3C)cc(Cl)c1OC here.
Return: 6.76
